- assay protocol: soluble fraction after stress (log2 fold change); higher = more stays soluble; pooled small domains, quantitative proteomics;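 note: 20 min heating vs room temperature control held 20 min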
- condition: stress: 75 degC
This listing pairs sequences with measured soluble fraction (log2).
No unit in the answer, only the number.

// solved cases for soluble fraction (log2) follow
HMHKKQEVQDSIDAAEEFMRASGVPAELITSKRAYAVKAIYADAVDKGTPDEIVKKDGMIVALISQMRS ... 0.421
HMNNLNDIIEIIRIYAKNYARNNPSWNHSELINRIRDKALGEAEDYNIRLSEEDLALITELSLRGL ... -0.713
HMPTELVYTVPASAEGLRLDHFLVQHVPHMTRALATELTGAGGVRVNGRRAKKGDRLPSGAEVRLER ... 0.0576

For the sequence shown here, HMGAIVTGTVVEIRSDVVIVNAGLKSEGVVPIEQFRNEAGELEVSVGDEVKVALDALEDGFGETRLS , give the reported soluble fraction (log2).
-0.347

I'd like to know its soluble fraction (log2). The sequence in question is HMQSAMALTKDLIEQQGKYYHRGQPFTGVGFAKNKKGKFVTEEPFKNGLLHGKRVNYDHNGHVLAREK
-0.105

For HMVDPAFLAWQQKPENTWFGTDRRKTALAIAIAEEIRNDPANSNLVGAAFYARVAEETEETLN , what is its reported soluble fraction (log2)?
-0.546

// query soluble fraction (log2) value for entry HMEDIASESVKRVIRKIIDDEDKKSPLSDQAIVEILAKGEGIVIARRTVAKYREMMGILPSSKRKKH
-1.4

If you can, please state the reported soluble fraction (log2) value of HMKIDELKAYLFQSVRVKNPHTQEYDTLKIIELNYYQDKIKAKLKNSDDDYITEMIFESIKHLQNFLG .
-2.81

====

- assay protocol: soluble fraction after stress (log2 fold change); higher = more stays soluble; pooled small domains, quantitative proteomics
- condition: stress: 75 degC
measured property: soluble fraction (log2)
Answer as a number with no unit attached.

HMETITDRLNRRSLELNVSQADIIRTTGAGRGTVSGWFSGANAPSAKYLESLAVALKTSTTWLLSGKD ... -2.23
HMGPVALGVTDGATYFSSVTITFRRGTAVLDGEPIASGHTVYKSGAHSLTLTAGGKTRTIAFTMDT ... -4.04
HMLIPADETEAKVLSVLSREPLHVDEIRNQAGLPIEKISATLALMELKGMVRQVGGMNYVSV ... -0.044
HMLGERIKQIRKQKKMTQTDVATGIITKSMLSMIENGKATPSLPALQAIARRLQVTVEELML ... -2.55

Param item = HMPQTNIYPNPAFDKLFVSNLENETNFKIMDLFGRTIINSKTKGEISISELKSGIYIIEINNFRQKFVK ; retrieve measured soluble fraction (log2).
-2.64

Quick one: soluble fraction (log2) for HMENFKVFMKAVQEVSPVPVRFDEISSGAKGYYSNTEKEIVIQNGMSESQTMKTGIHEVTHAMLHDRDF ?
0.234

Sample HMEGAEDMNRALALAFLRDNSRSTVAQLAEHLGSSKRSAERLVAQLKDEGVLERQGSPRAGLWIVHI — what was its soluble fraction (log2)?
-0.169

// query soluble fraction (log2) value for entry HMSQVSTKYINVSSAYVRSKPSKDGEIVTSLIKNTDVTVTGENGDWYKIKFNNYEGYIFKELLSDSKLEE
-0.442

====

- assay protocol: soluble fraction after stress (log2 fold change); higher = more stays soluble; pooled small domains, quantitative proteomics
- condition: stress: 75 degC
measured property: soluble fraction (log2)
Lab note: write the figure by itself, no unit.

The following sequences have reported results that may help.
HMSVFGDNVARLRAEHGMSQRALAERLEITNGTVAAWESRDTLPDYDRIRQIAEIFDVPIPQLFAKYIP ... -1.54
HMHPEETVNLILDAAFRLFLEKGYEHTSIQDIIGQLGGLSKGAIYHHFNSKEDILIAVTDRMTA ... -2.12
HMTANDKRNALYRKIEVGRRQLPAMDEVAFRQLLAAEFGVESRKDMSVGQLSRLVNILAEKGAVF ... -0.741
HMTAFEPYLVKVMASVLNIRKGPGTSYAITGQIKDKGTYTIVAESGSWGKLKSGAGWISLSYTSKAGKA ... -1.82
HMSVKLMEVKGASTVVSRQVREAVSIVFPTSSMRLDLVALKARIEGVDAVKRADVYLRNGILEIQIDER ... -2.11

Given the entry HMGVAAEDPDEAEKGAHSLKSSAANVGAEVVRGLAGEIESAASSGDVEAVRTILPGLEDAYSQAITDLET , report its measured soluble fraction (log2).
0.266

Recorded soluble fraction (log2) for HMSSKAVLEKFEALFIDQMLQSMRKATVRSELFDSEGIKLYESLFDKEISEELAKSGGLGLTKDLEQQL , please?
-1.36

Look up soluble fraction (log2) for this sequence: HMDMDRRALLLALINDRYHASVAEFARAINKAPAQVHQWLSGNRALGNAGARDIEIRLNLAQGYFDH
-2.16

====

- assay protocol: soluble fraction after stress (log2 fold change); higher = more stays soluble; pooled small domains, quantitative proteomics
- condition: stress: 75 degC
measured property: soluble fraction (log2)
Answer with a bare number; do not write a unit.

Use these answered entries as a reference point.
HMSRLLTTRQREVFEVATREGFWDVPRRINLSELAKVLGVAKSTLSSQLQRIESAVFHAFTDEIRRQS ... -2.09
HMSNHYETLGVPRDASQEDIKRAYRRLARKLHPDVAGPGKAEEFKAVNEAYAVLSDEESRRMYDLGGDDAL ... 0.157

Fill blank: measured soluble fraction (log2) of the sequence HMNRKILVLLAGKEQITDNVSVMQSIHRYAFINTATINKAQHEILIEKEEIRQEALTLIHEFLK is ____.
-0.97

So what's the measured soluble fraction (log2) for this one? HMEGTEVTTEPPGAQIEFDGKQFGPTPTRVPGLAAGKQFRITLAGYQEAKPKLKNNPKEGEPLSFTLTAI
0.338

Fill in: soluble fraction (log2) of HMTRHIQVNDSIASTPIEDVYFSTRTYNALLNNGISVIGDLSKYTHDDLYASFQGLGRAGVLEIEAYLRQD is ___
-1.43

Given the entry HMFPNLTNEEQQVMKVLAKTNDLQINMLSVQSNLPIARLTALLFSMEMKGVVKTLAGGVYHLL , report its measured soluble fraction (log2).
-4.27

Look at this sequence and give its reported soluble fraction (log2). HMQTLGADLRALRKARGLTLTDMAETLGRSVGWLSQVERDLSEPSITDLRHMARTLGVSVSMLFS
-1.52

Return reported soluble fraction (log2); argument: HMSEEELETSGLVKRSAKGNLYDIFRHRVMVPIIDVRGAIIAFGGRVLDDSKPKYINSPETMVY
-0.0708

====

- assay protocol: soluble fraction after stress (log2 fold change); higher = more stays soluble; pooled small domains, quantitative proteomics
- condition: stress: 75 degC
measured property: soluble fraction (log2)
Returns: the value as a bare number; no unit string appended.

HMPVVKIPFILTEGPSSITKVIEIDADEILELKDVFQEDDKLWSINQIEMNDGRYVKHSDASLIVRASALR ... 0.233
HMGRRERKKLQSRRAIIEAAVTEFKEKGFREASVADIMTRADLGLGTFYNYFQSKEDILMSLLS ... -0.0594
HMDIVENSMPNVVGLELNRAKELMTQLGFTNVRYEPTESSRPENEVVYQSVDKDETLDVSSEIIIQYSSGV ... 0.0628
HMPTPLTPREHEIANLIAQGLSNREIADELVISPATAARHVANILAKLGFSSRTQVASWATRHD ... -0.277

# soluble fraction (log2) lookup, item HMEDVDLFTKAMAALPNRYRDILLLRYSHGYTVEEISDILSMKPENVKKTIQRARKKLGEILEAEG
-1.25

Given the sequence HMGEVQALIPGLVSKLFVVEGESVKIGQKLIILEAMKMENEIASPINGTIKKIYIKSGDKIDKGSIIMEIT , what is its reported soluble fraction (log2)?
-3.41

soluble fraction (log2) lookup needed for HMTAPELSVGDYLEYRGKEYKVESLDMDGFITLTDTALEDAPRLISRVTFLTDEFIRSGEYMVIT , thanks.
-0.811

Look at this sequence and give its reported soluble fraction (log2). HMNPTTQIQYNLPKSEFVSIYIYDLIGNRVKSLINNYQDAGYKSVYWDAMNDLGQPVSAGMYIY
-0.0727

====

- assay protocol: soluble fraction after stress (log2 fold change); higher = more stays soluble; pooled small domains, quantitative proteomics
- condition: stress: 75 degC
Below, each of the sequences is paired with its reported soluble fraction (log2) value.
Could you keep your reply to the number by itself?

Reference set, count: 3
HMNVNEIREMYPEGTQIVLTEMRGENQMPYGLKGTVKFVDDAGQIHMKWENGSSLALNINEDTFEKVE ... 0.91
HMDSSALEPIVDQIIADNPKQVEQFQAGKTKVLGFFVGQVMKQTDGTANPKQVNELVAARLKSA ... 0.0418
HMQKTIDWSQVDKEQYLSAMERSPVNDLEIKAILAKALTSDINNRELFMKGLDHSYYFEGYQLFKSE ... -0.526

Turning now to a further sequence:
Look at this sequence and give its reported soluble fraction (log2). HMDDFNLSPREKDVLGHLVKGNSYKMIADELQIGYDTVHSHIKKIYKKLHVNSMSEAVAKALKNKL
0.332
